B1: ADD1 (parent)
chain: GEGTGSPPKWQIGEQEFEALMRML

Variants of: B1
Protocol text: protein stability index of a GFP-peptide fusion (GPS, HEK-293T) (PSI 1-6); higher = more stable;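 note: lentivirally expressed fusions sorted by FACS into six bins by GFP to DsRed ratio, PSI derived from sequencing read proportions per bin multiplied by bin number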
Measurement context: c terminus: a fixed tail appended
Please use 1 whenever protein stability index is not below 3, and -1 whenever it is.

A19H    1
E16N    1
I12N    1
M23I    -1
E16D    1

Q: Could you please find out whether `L24F` has protein stability index that meets 3 or exceeds it?
Result: 1

Q: Could you please find out whether `P8R` has protein stability index that meets 3 or exceeds it?
Result: 1

Q: Could you please find out whether `S6M` has protein stability index that meets 3 or exceeds it?
Result: 1

Q: Could you please find out whether `G5P` has protein stability index that meets 3 or exceeds it?
Result: -1

Q: Could you please find out whether `Q11G` has protein stability index that meets 3 or exceeds it?
Result: -1

Q: Could you please find out whether `T4W` has protein stability index that meets 3 or exceeds it?
Result: -1

Q: Could you please find out whether `P7V` has protein stability index that meets 3 or exceeds it?
Result: -1

Q: Could you please find out whether `T4F` has protein stability index that meets 3 or exceeds it?
Result: -1

Q: Could you please find out whether `L24H` has protein stability index that meets 3 or exceeds it?
Result: 1

Q: Could you please find out whether `M21P` has protein stability index that meets 3 or exceeds it?
Result: 1

Q: Could you please find out whether `F17K` has protein stability index that meets 3 or exceeds it?
Result: 1

Q: Could you please find out whether `G1A` has protein stability index that meets 3 or exceeds it?
Result: 1

Q: Could you please find out whether `E14C` has protein stability index that meets 3 or exceeds it?
Result: -1

Q: Could you please find out whether `E16Y` has protein stability index that meets 3 or exceeds it?
Result: -1
